Tested on: PRKCI
run parameters: concentration: 1 μM, replicates: in singlicate; n = 1;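 also: KINOMEscan kinase panel screen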
Each entry below lists one item and its recorded %Inh value.
measured endpoint: %Inh (%)

entry smiles | uom | recorded number
COc1ccc(CSc2nnc(-c3ccc4nccn4c3)o2)cc1C(F)(F)F | % | 13
CCCCc1nn2ncccc2c1-c1ccnc(NC2CC2)n1 | % | 8
Cc1ccc(NC(=O)Nc2ccc(Cl)cc2)cc1-c1ccc(C(=O)Nc2ccncc2)cc1 | % | 27

----------
Tested on: BIKE
Construct: gene BMP2K
run parameters: concentration: 1 μM, replicates: in singlicate; n = 1
measured endpoint: %Inh (%)

compound | measured endpoint | uom | recorded number
Cc1ccccc1-c1cc(-c2c[nH]nc2-c2ccccn2)ccn1 | %Inh | % | 2
FC(F)(F)c1ccccc1-c1cc(-c2c[nH]nc2-c2ccccn2)ccn1 | %Inh | % | 24
COc1ccc(CSc2nnc(-c3ccc4c(c3)CCO4)o2)cc1 | %Inh | % | 0
Nc1cccc(-c2ccc3c(N)n[nH]c3c2)n1 | %Inh | % | 74
Cc1ccc(NC(=O)c2ccc(Cl)cc2)cc1-c1ccc(C(=O)Nc2ccncc2)cc1 | %Inh | % | 13
COc1nccc(-c2c(-c3ccc(F)cc3)ncn2CCCN2CCOCC2)n1 | %Inh | % | 0
CNc1cc(-c2ccc3c(N)n[nH]c3c2)nc(N)n1 | %Inh | % | 74
CCn1c(-c2ccccc2)nc2cnccc21 | %Inh | % | 28
CC(=O)c1cccc(NC(=O)NC2CCN(c3ccnc(Nc4ccc(F)cc4)n3)C2)c1 (stereo not shown) | %Inh | % | 25
Cc1ccc(NC(=O)Nc2ccccc2F)cc1-c1ccc(C(=O)Nc2ccncc2)cc1 | %Inh | % | 28
O=c1cc(N2CCOCC2)nc2n(Cc3cccc(Cl)c3Cl)c3ccccc3n12 | %Inh | % | 38
COC(=O)c1cccc(NC(=O)NC2CCN(c3ccnc(Nc4ccc(F)cc4)n3)C2)c1 (stereo not shown) | %Inh | % | 20
Cc1ccc(-c2nc(Nc3ccncc3)c3ccccc3n2)s1 | %Inh | % | 37
COc1ccc(Nc2nccc(N3CCC(NC(=O)C(C)c4ccc(Cl)cc4)CC3)n2)cc1 (stereo not shown) | %Inh | % | 36
Cc1cnc(N)c(/C=C/c2cncc(C(=O)NCCc3ccc(Cl)cc3Cl)c2)c1.Cl | %Inh | % | 23
CNc1nc(-c2ccc3c(N)n[nH]c3c2)cc(N2C[C@@H](C(=O)NC3CCCCC3)OC[C@H]2C)n1 | %Inh | % | 24
COc1ccc(Nc2nccc(N3CCC(NC(=O)c4cc5ccccc5s4)C3)n2)cc1 (stereo not shown) | %Inh | % | 13
COc1cc2ncnc(Nc3cccc(Br)c3)c2cc1OC.Cl | %Inh | % | 19
CN1c2ccc(-c3ccc(C(N)=O)cc3)cc2-c2[nH]ncc2S1(=O)=O | %Inh | % | 9

Hello, the source for this data is paper PMC5540273, in case you need it.
